- TARGET OR SYSTEM: Human Calpain 2/NS1 (Homo sapiens, UniProt P17655)
- Sequence (P17655 1-700): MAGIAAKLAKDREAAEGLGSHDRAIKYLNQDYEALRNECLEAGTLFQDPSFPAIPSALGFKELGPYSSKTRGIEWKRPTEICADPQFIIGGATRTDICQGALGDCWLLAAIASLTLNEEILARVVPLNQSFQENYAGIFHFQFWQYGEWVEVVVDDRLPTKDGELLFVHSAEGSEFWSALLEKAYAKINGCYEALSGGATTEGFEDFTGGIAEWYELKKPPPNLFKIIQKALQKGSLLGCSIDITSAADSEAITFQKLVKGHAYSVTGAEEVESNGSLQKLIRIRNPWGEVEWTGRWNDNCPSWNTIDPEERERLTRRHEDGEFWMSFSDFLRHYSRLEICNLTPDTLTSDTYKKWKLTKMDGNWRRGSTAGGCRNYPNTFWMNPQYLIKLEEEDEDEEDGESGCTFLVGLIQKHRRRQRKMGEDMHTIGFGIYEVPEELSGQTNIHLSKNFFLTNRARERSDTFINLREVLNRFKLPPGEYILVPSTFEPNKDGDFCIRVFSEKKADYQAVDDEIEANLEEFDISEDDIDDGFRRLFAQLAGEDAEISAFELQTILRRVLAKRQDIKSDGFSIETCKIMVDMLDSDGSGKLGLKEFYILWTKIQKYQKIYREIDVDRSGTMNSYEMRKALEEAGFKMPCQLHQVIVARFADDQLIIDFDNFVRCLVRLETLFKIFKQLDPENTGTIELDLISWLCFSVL
- Sequence (P04632 1-268 partner): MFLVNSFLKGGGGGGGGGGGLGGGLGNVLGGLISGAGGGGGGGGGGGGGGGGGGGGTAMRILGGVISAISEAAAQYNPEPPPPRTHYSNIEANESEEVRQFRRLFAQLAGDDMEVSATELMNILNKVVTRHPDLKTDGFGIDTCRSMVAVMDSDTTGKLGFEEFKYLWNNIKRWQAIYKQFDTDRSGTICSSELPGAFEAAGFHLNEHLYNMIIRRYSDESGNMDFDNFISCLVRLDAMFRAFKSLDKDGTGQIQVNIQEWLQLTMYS
- TEST DESCRIPTION: Biochemical inhibition of calpain 2, continuous fluorescence (FRET substrate) assay
- MEASUREMENT SETUP: mean, read-out: Human Calpain 2/NS1 IC50 (nM)_MEAN
- Experimental: Calpain 1, 2, and 9 activity and inhibition thereof are assessed by means of a continuous fluorescence assay. The SensoLyte 520 Calpain substrate (Anaspec Inc) is optimized for detecting calpain activity. This substrate contains a novel internally quenched 5-FAM/QXL™ 520 FRET pair. Calpains 1, 2, and 9 cleave the FRET substrate into two separate fragments resulting in an increase of 5-FAM fluorescence that is proportional to calpain activity. […]
# IC50 per record follows

Solved entries:
{"COMPOUND": "O=C[C@@H]1CC=CCOCCOc2ccccc2C(=O)N1", "OBSERVED RESULT": "> 10000 nM"}
{"COMPOUND": "O=C(NCc1ccc2c(c1)OCO2)C(=O)C1CCCCOCCOCc2ccccc2C(=O)N1 (stereo not drawn)", "OBSERVED RESULT": "3000 to 10000 nM"}
{"COMPOUND": "CON(C)C(=O)[C@@H]1C/C=C\\CCOc2ccnc(n2)-c2ccccc2C(=O)N1", "OBSERVED RESULT": "> 10000 nM"}
{"COMPOUND": "Cc1cc2n(n1)-c1cccc(c1)OCCCCC[C@@H](C(=O)C(N)=O)NC2=O", "OBSERVED RESULT": "< 3000 nM"}
{"COMPOUND": "O=C(NCc1cccnc1)C(=O)C1CCCCOCCOCc2ccccc2C(=O)N1 (stereo not drawn)", "OBSERVED RESULT": "> 10000 nM"}

Lookup: Report IC50 for "NC(=O)C(=O)[C@@H]1CCCCOCCOCc2ccccc2C(=O)N1" please.
Found: < 3000 nM

Lookup: Also need "O=C[C@@H]1Cc2ccc(cc2)OCCCCOc2cccc(c2)-c2ccn(n2)-c2ncccc2C(=O)N1" , thanks.
Found: < 3000 nM

Lookup: Also need "CCOC(=O)CCNC(=O)C(=O)[C@@H]1C/C=C\COCCOCc2ccccc2C(=O)N1" , thanks.
Found: > 10000 nM

Lookup: What about this compound? CCCCc1ccc(CNC(=O)C(=O)C2CCCCOCCOCc3ccccc3C(=O)N2)cc1 (stereo not drawn)
Found: > 10000 nM

Lookup: Try this compound too: "O=C[C@@H]1Cc2ccc(cc2)OC/C=C/COc2cccc(c2)-c2ccn(n2)-c2ncccc2C(=O)N1"
Found: < 3000 nM

Lookup: Please give the result for O=C(NCc1c(F)cccc1Cl)C(=O)C1CCCCOCCOCc2ccccc2C(=O)N1 (stereo not drawn) too.
Found: > 10000 nM

Lookup: For "O=C[C@@H]1CC=CCCOc2ccnc(n2)-c2ccccc2C(=O)N1" then?
Found: < 3000 nM

* * *

- TARGET OR SYSTEM: Human Calpain 1/NS1 (Homo sapiens)
- Sequence (P07384 1-714): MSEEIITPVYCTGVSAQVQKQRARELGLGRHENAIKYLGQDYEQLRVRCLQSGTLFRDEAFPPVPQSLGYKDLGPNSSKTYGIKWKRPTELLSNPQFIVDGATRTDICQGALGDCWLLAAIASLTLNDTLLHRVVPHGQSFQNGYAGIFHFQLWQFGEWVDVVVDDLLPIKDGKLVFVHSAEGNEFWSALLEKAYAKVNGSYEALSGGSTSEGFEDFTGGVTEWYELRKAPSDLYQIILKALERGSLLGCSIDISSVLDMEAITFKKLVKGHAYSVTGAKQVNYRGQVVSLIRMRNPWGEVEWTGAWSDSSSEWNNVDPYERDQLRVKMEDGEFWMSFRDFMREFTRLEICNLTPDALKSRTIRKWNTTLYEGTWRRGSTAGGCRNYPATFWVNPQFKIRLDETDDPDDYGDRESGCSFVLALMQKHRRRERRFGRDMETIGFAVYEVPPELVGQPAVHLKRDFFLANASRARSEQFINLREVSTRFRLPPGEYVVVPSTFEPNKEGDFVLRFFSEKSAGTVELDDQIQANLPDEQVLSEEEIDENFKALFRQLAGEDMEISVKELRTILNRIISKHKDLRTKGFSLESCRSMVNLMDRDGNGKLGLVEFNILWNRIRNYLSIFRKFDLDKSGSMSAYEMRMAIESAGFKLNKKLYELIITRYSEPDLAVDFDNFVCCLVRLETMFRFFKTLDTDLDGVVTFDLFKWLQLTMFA
- Sequence (P04632 1-268 partner): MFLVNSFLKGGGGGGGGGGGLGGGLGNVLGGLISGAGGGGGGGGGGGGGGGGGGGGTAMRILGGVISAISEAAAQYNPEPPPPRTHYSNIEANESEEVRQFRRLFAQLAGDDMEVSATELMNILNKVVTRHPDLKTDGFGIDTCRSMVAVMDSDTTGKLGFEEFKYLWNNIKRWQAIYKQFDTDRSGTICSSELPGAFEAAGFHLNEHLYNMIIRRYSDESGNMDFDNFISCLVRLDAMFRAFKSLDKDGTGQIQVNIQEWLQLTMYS
- TEST DESCRIPTION: Biochemical inhibition of calpain 1, continuous fluorescence (FRET substrate) assay
- MEASUREMENT SETUP: mean, read-out: Human Calpain 1/NS1 IC50 (nM)_MEAN
Listing of recorded IC50 by entry.

Lookup: // query IC50 value for entry O=C(NC1CC1)C(=O)C1CCCCOCCOCc2ccccc2C(=O)N1 (centres unmarked) [Compound 114]
Found: > 10000 nM

Lookup: Another compound to check: O=C[C@@H]1CCCCOCCOc2ccccc2C(=O)N1 [Compound 19]
Found: > 10000 nM

Lookup: Also O=C(NC1CC1)C(=O)[C@@H]1C/C=C/COCCOCc2ccccc2C(=O)N1 [Compound 79] ?
Found: > 10000 nM

Lookup: Next entry: NC(=O)C(=O)[C@@H]1CCCCCOc2ccnc(n2)-c2ccccc2C(=O)N1 [Compound 129]
Found: < 3000 nM

Lookup: Another compound: NS(=O)(=O)c1ccc(CNC(=O)C(=O)C2CCCCOCCOCc3ccccc3C(=O)N2)cc1 (centres unmarked) [Compound 84]
Found: > 10000 nM

* * *

- TARGET OR SYSTEM: Human Calpain 1/NS1 (Homo sapiens, UniProt P07384)
- Sequence (P07384 1-714): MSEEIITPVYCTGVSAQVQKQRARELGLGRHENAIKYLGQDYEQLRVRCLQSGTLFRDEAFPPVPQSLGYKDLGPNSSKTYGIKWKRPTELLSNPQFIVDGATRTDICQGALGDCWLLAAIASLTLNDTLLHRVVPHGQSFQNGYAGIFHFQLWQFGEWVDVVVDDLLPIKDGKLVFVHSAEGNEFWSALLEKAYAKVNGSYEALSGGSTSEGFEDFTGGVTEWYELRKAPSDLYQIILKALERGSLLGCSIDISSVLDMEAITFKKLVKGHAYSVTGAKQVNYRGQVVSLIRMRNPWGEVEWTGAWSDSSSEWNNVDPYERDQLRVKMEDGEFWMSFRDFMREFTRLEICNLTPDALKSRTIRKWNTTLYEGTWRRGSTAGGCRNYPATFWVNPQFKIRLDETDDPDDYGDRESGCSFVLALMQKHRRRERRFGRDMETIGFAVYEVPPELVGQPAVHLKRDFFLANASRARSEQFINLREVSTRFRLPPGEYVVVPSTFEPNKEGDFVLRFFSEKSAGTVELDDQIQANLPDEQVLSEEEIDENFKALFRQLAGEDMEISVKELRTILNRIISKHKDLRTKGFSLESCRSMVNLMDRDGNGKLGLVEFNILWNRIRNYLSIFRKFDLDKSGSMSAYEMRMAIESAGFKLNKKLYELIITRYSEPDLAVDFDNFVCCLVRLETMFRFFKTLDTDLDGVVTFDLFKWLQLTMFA
- Sequence (P04632 1-268 partner): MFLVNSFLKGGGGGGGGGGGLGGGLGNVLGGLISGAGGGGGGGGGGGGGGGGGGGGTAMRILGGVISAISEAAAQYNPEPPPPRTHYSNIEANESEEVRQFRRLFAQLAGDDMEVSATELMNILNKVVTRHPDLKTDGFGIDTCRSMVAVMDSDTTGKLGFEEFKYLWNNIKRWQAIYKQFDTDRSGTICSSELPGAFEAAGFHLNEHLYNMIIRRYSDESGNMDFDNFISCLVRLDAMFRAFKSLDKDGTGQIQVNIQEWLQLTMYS
- TEST DESCRIPTION: Biochemical inhibition of calpain 1, continuous fluorescence (FRET substrate) assay
- MEASUREMENT SETUP: mean, read-out: Human Calpain 1/NS1 IC50 (nM)_MEAN
- Description: Calpain 1, 2, and 9 activity and inhibition thereof are assessed by means of a continuous fluorescence assay. The SensoLyte 520 Calpain substrate (Anaspec Inc) is optimized for detecting calpain activity. This substrate contains a novel internally quenched 5-FAM/QXL™ 520 FRET pair. Calpains 1, 2, and 9 cleave the FRET substrate into two separate fragments resulting in an increase of 5-FAM fluorescence that is proportional to calpain activity. […]
MEASUREMENT KIND: IC50

{"COMPOUND": "CON(C)C(=O)[C@@H]1C/C=C\\CCOc2ccnc(n2)-c2ccccc2C(=O)N1 [Compound 136]", "IC50": "> 10000 nM"}
{"COMPOUND": "O=C[C@@H]1CCCCCOc2ccc(F)c(c2)-c2ccccc2C(=O)N1 [Compound 146]", "IC50": "< 3000 nM"}
{"COMPOUND": "O=C(NCc1ccccc1)C(=O)[C@@H]1C/C=C/COCCOCc2ccccc2C(=O)N1 [Compound 4]", "IC50": "> 10000 nM"}
{"COMPOUND": "NC(=O)C(=O)[C@@H]1CCCCCCOc2ccnc(c2)-c2ccccc2C(=O)N1 [Compound 132]", "IC50": "< 3000 nM"}
{"COMPOUND": "O=C[C@@H]1CC=CCCOc2ccnc(n2)-c2ccccc2C(=O)N1 [Compound 39]", "IC50": "3000 to 10000 nM"}

Lookup: Item CCNC(=O)C(=O)[C@@H]1Cc2ccc(cc2)OCCCCOc2ccc3c(cnn3-c3ncccc3C(=O)N1)c2 [Compound 47] has what recorded IC50?
Found: < 3000 nM
